# maps each entry to its Ki
# assayed-system: MASP-2 (CCP1-CCP2-SP) (Homo sapiens (Human), UniProt O00187)
# Sequence (O00187 445-686): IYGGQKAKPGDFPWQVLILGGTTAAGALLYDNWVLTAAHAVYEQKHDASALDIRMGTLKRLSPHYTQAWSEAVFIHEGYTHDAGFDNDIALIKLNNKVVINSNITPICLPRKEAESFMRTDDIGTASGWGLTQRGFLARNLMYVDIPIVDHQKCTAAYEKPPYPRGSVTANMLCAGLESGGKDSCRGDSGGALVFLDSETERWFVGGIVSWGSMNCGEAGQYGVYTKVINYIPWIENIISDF
# assay-method-text: biochemical
# Format: biochemical
Counter-ions that a name gives are not always drawn.

Past entries and their recorded results:
[
  {
    "compound": "C[C@H](NC(=O)[C@H]1C[C@H](c2ccccc2)CN1)C(=O)NCc1cnc2sccc2c1 [compound 1471, Trifluoroacetate salt]",
    "Ki": "2.5 to 10 µM"
  },
  {
    "compound": "CC(=O)Nc1ccc(Cl)cc1CNC(=O)[C@H](C)NC(=O)[C@H]1C[C@H](c2ccccc2)CN1 [compound 1269]",
    "Ki": "0.5 to 2.5 µM"
  },
  {
    "compound": "COCc1cccc(-c2nc3cc(C(=N)N)ccc3[nH]2)n1 [compound 2011, dihydrochloride]",
    "Ki": "> 25 µM"
  },
  {
    "compound": "N=C(N)c1ccc2[nH]c(-c3c[nH]cn3)nc2c1 [compound 2000, dihydrochloride]",
    "Ki": "> 25 µM"
  },
  {
    "compound": "Cc1cnc(NCCc2ccccc2)c(=O)n1CC(=O)NCc1ccc2c(N)nccc2c1 [compound 1491]",
    "Ki": "0.5 to 2.5 µM"
  },
  {
    "compound": "Cc1cccnc1-c1nc2cc(C(=N)N)ccc2[nH]1 [compound 2004, dihydrochloride]",
    "Ki": "> 25 µM"
  },
  {
    "compound": "CC[C@H]1N[C@@H](C(=O)N[C@@H](C)C(=O)NCc2ccc(N)nc2C)C[C@@H]1Cc1ccccc1 [compound 1413, Di-trifluoroacetate salt]",
    "Ki": "0.5 to 2.5 µM"
  },
  {
    "compound": "Cc1cc(C)c(O)c(CNC(=O)[C@H](C)NC(=O)[C@H]2C[C@H](c3ccccc3)CN2)c1 [compound 1383, Hydrochloride]",
    "Ki": "0.5 to 2.5 µM"
  }
]

Consider the compound shown here: C[C@H](NC(=O)[C@H]1C[C@H](c2ccccc2)CN1)C(=O)NCC1CCc2nc(N)sc2C1 (stereo partly shown) [compound 1281] What is its recorded Ki?
2.5 to 10 µM

What measured Ki goes with Cc1nc(N)ccc1CNC(=O)[C@H](C)NC(=O)[C@H]1C[C@@H](Oc2ccccc2)CN1 [compound 1310, Dihydrochloride] ?
0.5 to 2.5 µM
